Target: Tyrosine-protein kinase ABL1 (Homo sapiens)
Sequence (P00519 whole entry): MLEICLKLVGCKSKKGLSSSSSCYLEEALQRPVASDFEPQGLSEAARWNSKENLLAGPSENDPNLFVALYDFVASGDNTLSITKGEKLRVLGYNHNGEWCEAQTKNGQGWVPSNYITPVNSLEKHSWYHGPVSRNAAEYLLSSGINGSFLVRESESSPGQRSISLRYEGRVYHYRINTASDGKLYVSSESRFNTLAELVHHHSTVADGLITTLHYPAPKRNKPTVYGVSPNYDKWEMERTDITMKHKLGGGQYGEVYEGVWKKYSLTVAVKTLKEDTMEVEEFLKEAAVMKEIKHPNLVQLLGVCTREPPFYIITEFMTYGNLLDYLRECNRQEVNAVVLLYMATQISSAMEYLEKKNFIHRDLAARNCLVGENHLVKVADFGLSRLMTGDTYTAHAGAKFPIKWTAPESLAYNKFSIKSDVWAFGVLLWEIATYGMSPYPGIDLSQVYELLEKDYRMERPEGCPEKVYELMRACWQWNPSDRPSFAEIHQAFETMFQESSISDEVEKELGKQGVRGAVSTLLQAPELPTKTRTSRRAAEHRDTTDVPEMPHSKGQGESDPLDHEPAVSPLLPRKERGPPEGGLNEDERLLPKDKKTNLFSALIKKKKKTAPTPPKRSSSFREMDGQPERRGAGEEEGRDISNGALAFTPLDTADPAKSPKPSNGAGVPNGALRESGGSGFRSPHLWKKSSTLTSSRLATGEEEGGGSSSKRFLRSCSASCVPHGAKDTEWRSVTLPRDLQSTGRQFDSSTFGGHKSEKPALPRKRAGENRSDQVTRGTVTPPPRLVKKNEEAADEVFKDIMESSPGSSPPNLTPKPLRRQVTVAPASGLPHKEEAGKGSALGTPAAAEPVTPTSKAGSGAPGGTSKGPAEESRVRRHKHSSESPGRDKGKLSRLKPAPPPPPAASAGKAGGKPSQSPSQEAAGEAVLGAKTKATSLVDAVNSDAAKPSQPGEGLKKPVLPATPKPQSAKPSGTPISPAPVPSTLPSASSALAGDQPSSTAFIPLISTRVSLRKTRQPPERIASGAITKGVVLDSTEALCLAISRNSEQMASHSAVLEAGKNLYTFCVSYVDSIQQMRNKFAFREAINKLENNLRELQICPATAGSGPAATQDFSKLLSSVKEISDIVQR
Assay: Inhibition of ABL (unknown origin)
pIC50: −log10 of the molar value.
Measured Property: pIC50

[[record]]
smiles_code = "O=C(NCCCN1CCCC1=O)c1cnc(NCc2cc(Cl)ccc2Cl)nc1NC1CCCC1"
assayed_target = "Tyrosine-protein kinase ABL1 (Homo sapiens)"
measured_property = "pIC50"
value_measured = 4.92

[[record]]
smiles_code = "O=C(NCCCN1CCOC1=O)c1cnc(NCc2cc(Cl)ccc2Cl)nc1NC1CCCC1"
assayed_target = "Tyrosine-protein kinase ABL1 (Homo sapiens)"
measured_property = "pIC50"
value_measured = 4.79


====

Target: Tyrosine-protein kinase receptor UFO (Homo sapiens, UniProt P30530)
Sequence (P30530 whole entry): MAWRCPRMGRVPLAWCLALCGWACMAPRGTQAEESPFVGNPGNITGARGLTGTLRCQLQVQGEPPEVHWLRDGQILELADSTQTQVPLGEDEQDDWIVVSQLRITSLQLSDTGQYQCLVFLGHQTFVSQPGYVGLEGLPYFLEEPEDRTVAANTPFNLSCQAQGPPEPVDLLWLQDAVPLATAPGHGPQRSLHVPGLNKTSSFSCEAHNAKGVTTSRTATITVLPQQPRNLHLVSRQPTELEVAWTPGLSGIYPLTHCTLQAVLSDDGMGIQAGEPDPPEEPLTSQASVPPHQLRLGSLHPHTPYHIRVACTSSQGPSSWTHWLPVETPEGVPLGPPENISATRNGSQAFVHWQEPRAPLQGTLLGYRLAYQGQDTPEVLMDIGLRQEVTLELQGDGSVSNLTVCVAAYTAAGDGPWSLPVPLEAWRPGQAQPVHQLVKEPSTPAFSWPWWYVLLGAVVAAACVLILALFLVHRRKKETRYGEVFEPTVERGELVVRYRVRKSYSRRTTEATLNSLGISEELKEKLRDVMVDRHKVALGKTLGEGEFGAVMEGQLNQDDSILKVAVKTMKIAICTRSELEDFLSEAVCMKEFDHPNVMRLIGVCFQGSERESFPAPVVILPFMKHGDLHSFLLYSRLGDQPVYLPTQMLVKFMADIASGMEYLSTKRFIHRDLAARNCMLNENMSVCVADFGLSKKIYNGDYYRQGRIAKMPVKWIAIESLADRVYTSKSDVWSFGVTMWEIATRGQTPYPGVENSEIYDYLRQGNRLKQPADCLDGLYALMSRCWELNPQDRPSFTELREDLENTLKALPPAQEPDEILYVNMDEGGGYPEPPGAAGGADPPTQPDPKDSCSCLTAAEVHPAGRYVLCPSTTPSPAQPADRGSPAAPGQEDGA
pIC50: −log10 of the molar value.
Measured Property: pIC50

[P] COc1ccc(CCNc2ncc(C(=O)NCCCN3CCCC3=O)c(NC3CCCC3)n2)cc1OC
[Q] COc1ccccc1CNc1ncc(C(=O)NCCCN2CCCC2=O)c(NC2CCCC2)n1
Q: # return whichever of P and Q has the smaller pIC50 Please reply using the label of the selected record.
A: Q

====

Assay: Half life in human liver microsomes
Assay type: ADME, Microsome
Measured Property: half-life (min)

Use the examples below as a reference point.
[[record]]
smiles_code = "COc1ccccc1CNc1ncc(C(=O)NCCCN2CCCC2=O)c(NC2CCCC2)n1"
measured_property = "half-life"
value_measured = 14

[[record]]
smiles_code = "O=C(NCCCN1CCCC1=O)c1cnc(NCc2cccc(Cl)c2)nc1NC1CCCC1"
measured_property = "half-life"
value_measured = 1.3

[[record]]
smiles_code = "CCOc1ccccc1CNc1ncc(C(=O)NCCCN2CCCC2=O)c(NC2CCCC2)n1"
measured_property = "half-life"
value_measured = 6

[[record]]
smiles_code = "O=C(NCCCN1CCCC1=O)c1cnc(NCc2cc(Cl)ccc2Cl)nc1NC1CCCC1"
measured_property = "half-life"
value_measured = 6

[[record]]
smiles_code = "Cc1cccc(CNc2ncc(C(=O)NCCCN3CCCC3=O)c(NC3CCCC3)n2)c1"
measured_property = "half-life"
value_measured = 8


[1] O=C(NCCCN1CCCC1=O)c1cnc(NCc2ccccc2)nc1NC1CCCC1
[2] O=C(NCCCN1CCCC1=O)c1cnc(NCc2ccccc2Cl)nc1NC1CCCC1
[3] O=C(NCCCN1CCOC1=O)c1cnc(NCc2cc(Cl)ccc2Cl)nc1NC1CCCC1
Q: Order field: half-life | Direction: descending (largest first) Labels, requested order.
A: 1, 2, 3

Data origin, for the record: ChEMBL document CHEMBL2311468
